Test system: MOOVA (Monochoria)
Experiment: Preemergence weed control under flooded paddy conditions
Type: in vivo, Monochoria vaginalis
Conditions: 0.0313 kg/ha, rated 3-4 weeks after treatment
measurement label: herbicidal effect rating, MOOVA
Output: the number by itself.

Cn1c(C(F)(F)F)cc(=O)n(-c2cc(N=C3SCC(=O)N3Cc3ccc(Cl)cc3)c(Cl)cc2F)c1=O [Compound 145]	4.0

## Task Look at this molecule and give its reported herbicidal effect rating, MOOVA. Cn1c(C(F)(F)F)cc(=O)n(-c2cc(N=C3SCC(=O)N3Cc3ccc(Br)cc3)c(Cl)cc2F)c1=O [Compound 148]
## Result 7.0

## Task May I ask what herbicidal effect rating, MOOVA has been recorded for Cc1cccc(CN2C(=O)CSC2=Nc2cc(-n3c(=O)cc(C(F)(F)F)n(C)c3=O)c(F)cc2Cl)c1 [Compound 130] ?
## Result 0.0

## Task Recorded herbicidal effect rating, MOOVA for Cn1c(C(F)(F)F)cc(=O)n(-c2cc(N=C3SCC(=O)N3Cc3cccc(C(F)(F)F)c3)c(Cl)cc2F)c1=O [Compound 142] , please?
## Result 6.0

## Task # query: herbicidal effect rating, MOOVA of entry CCOC(=O)CN1C(=O)C(Cl)SC1=Nc1cc(-n2c(=O)cc(C(F)(F)F)n(C)c2=O)c(F)cc1Cl (stereo not shown) [Compound 126]
## Result 3.0

## Task Consider the molecule shown here: Cn1c(C(F)(F)F)cc(=O)n(-c2cc(N=C3SCC(=O)N3Cc3ccccc3Cl)c(Cl)cc2F)c1=O [Compound 143] What is its recorded herbicidal effect rating, MOOVA?
## Result 5.0

## Task Reported herbicidal effect rating, MOOVA for Cn1c(C(F)(F)F)cc(=O)n(-c2cc(N=C3SCC(=O)N3Cc3ccco3)c(Cl)cc2F)c1=O [Compound 122] : what is it?
## Result 8.0

---

Here the recorded Herbicidal rating CYPIR is given for each entry.
System: CYPIR (Rice Flatsedge)
Experiment: Postemergence weed control under flooded paddy conditions
Type: in vivo, Cyperus iria
Conditions: rate 0.0313 kg/ha, postemergence weeds, 3-4 weeks after treatment
Number only, please.

Sample records with Herbicidal rating CYPIR:
Cn1c(C(F)(F)F)cc(=O)n(-c2cc(N=C3SCC(=O)N3[C@@H](Cc3ccccc3)C(=O)O)c(Cl)cc2F)c1=O	2.0
CCOC(=O)COc1ccccc1CC1S/C(=N/c2cc(-n3c(=O)cc(C(F)(F)F)n(C)c3=O)c(F)cc2Cl)N(CC(=O)OCC)C1=O (centres unmarked)	0.0

## Task Look up Herbicidal rating CYPIR for this compound: CCOC(=O)CN1C(=O)C(CC)SC1=Nc1cc(-n2c(=O)cc(C(F)(F)F)n(C)c2=O)c(F)cc1Cl (centres unmarked)
## Result 0.0

## Task Report Herbicidal rating CYPIR for CC1SC(=Nc2cc(-n3c(=O)cc(C(F)(F)F)n(C)c3=O)c(F)cc2Cl)N(C)C1=O (centres unmarked) please.
## Result 0.0

## Task What value of measured Herbicidal rating CYPIR is listed for CCOC(=O)CN1C(=O)C(CC(=O)O)O/C1=N/c1cc(-n2c(=O)cc(C(F)(F)F)n(C)c2=O)c(F)cc1Cl (centres unmarked) ?
## Result 0.0

---

System: ECHCG (Barnyardgrass)
Assay: Preemergence herbicidal evaluation
Assay type: in vivo, Echinochloa crus-galli
Settings: rate 0.2500 kg/ha; rated 4-5 weeks after treatment
measurement label: Preemergence herbicidal rating ECHCG
Number, no unit, nothing else.

## Task Form: Entry = Cn1c(C(F)(F)F)cc(=O)n(-c2cc(N=C3SCC(=O)N3CCC(=O)O)c(Cl)cc2F)c1=O | System = ECHCG (Barnyardgrass) | Preemergence herbicidal rating ECHCG = ____
## Result 9.0

## Task Hi! What's the reported Preemergence herbicidal rating ECHCG for COC(=O)[C@H](Cc1ccccc1)N1C(=O)CS/C1=N/c1cc(-n2c(=O)cc(C(F)(F)F)n(C)c2=O)c(F)cc1Cl on ECHCG (Barnyardgrass)?
## Result 3.0

## Task Find Preemergence herbicidal rating ECHCG (ECHCG (Barnyardgrass)) for the entry COCCOC(=O)CN1C(=O)CSC1=Nc1cc(-n2c(=O)cc(C(F)(F)F)n(C)c2=O)c(F)cc1Cl
## Result 1.0

---

Test system: AMBEL (Ragweed, Common)
Test: Preemergence herbicidal evaluation
Assay type: in vivo, Ambrosia artemisifolia
Details: rate 0.0625 kg/ha; rated 4-5 weeks after treatment
Entry flag: met if Preemergence herbicidal rating AMBEL reaches 2; not met if it does not.

The examples below pair each entry with its known result.
CCOC(=O)COc1ccccc1CC1S/C(=N/c2cc(-n3c(=O)cc(C(F)(F)F)n(C)c3=O)c(F)cc2Cl)N(CC(=O)OCC)C1=O (stereo not drawn)	not met
CCOC(=O)[C@H](C)N1C(=O)CSC1=Nc1cc(-n2c(=O)cc(C(F)(F)F)n(C)c2=O)c(F)cc1Cl	met
CCOC(=O)CN1C(=O)C(Cl)SC1=Nc1cc(-n2c(=O)cc(C(F)(F)F)n(C)c2=O)c(F)cc1Cl (stereo not drawn)	not met
Cn1c(C(F)(F)F)cc(=O)n(-c2cc(N=C3SCC(=O)N3C3CCOC3=O)c(Cl)cc2F)c1=O (stereo not drawn)	met
CCOC(=O)CN1C(=O)C(CC(=O)O)SC1=Nc1cc(-n2nc(C)n(C(F)F)c2=O)c(F)cc1Cl (stereo not drawn)	not met
CCOC(=O)C(c1ccc(Cl)cc1)N1C(=O)CSC1=Nc1cc(-n2c(=O)cc(C(F)(F)F)n(C)c2=O)c(F)cc1Cl (racemic)	met
Cn1c(C(F)(F)F)cc(=O)n(-c2cc(N=C3SCC(=O)N3CC(=O)NS(C)(=O)=O)c(Cl)cc2F)c1=O	not met
CCOC(=O)CN1C(=O)C(Cc2ccccc2OC(C)C(=O)O)S/C1=N/c1cc(-n2c(=O)cc(C(F)(F)F)n(C)c2=O)c(F)cc1Cl (stereo not drawn)	not met
CCOP(=O)(CN1C(=O)CSC1=Nc1cc(-n2c(=O)cc(C(F)(F)F)n(C)c2=O)c(F)cc1Cl)OCC	not met
Cn1c(C(F)(F)F)cc(=O)n(-c2cc(N=C3SCC(=O)N3[C@@H](Cc3ccccc3)C(=O)O)c(Cl)cc2F)c1=O	met

Next item in the queue.
## Task Check if Preemergence herbicidal rating AMBEL >= 2 (inclusive). Item: COC(=O)CCN1C(=O)CSC1=Nc1cc(-n2c(=O)cc(C(F)(F)F)n(C)c2=O)c(F)cc1Cl
## Result not met

---

System: ECHORC (Watergrass (Calif.))
Assay: Preemergence weed control under flooded paddy conditions
Type: in vivo, Echinochloa oryzoides
Settings: 0.2500 kg/ha, rated 3-4 weeks after treatment
measurement label: ECHORC herbicidal effect rating
Lab note: jot the number down without any unit.

C=CCOC(=O)CN1C(=O)CSC1=Nc1cc(-n2c(=O)cc(C(F)(F)F)n(C)c2=O)c(F)cc1Cl [Compound 106]	7.0

## Task Given COC(=O)C1(N2C(=O)CSC2=Nc2cc(-n3c(=O)cc(C(F)(F)F)n(C)c3=O)c(F)cc2Cl)CCCCC1 [Compound 81] , state its recorded ECHORC herbicidal effect rating.
## Result 3.0

## Task Could you tell me which ECHORC herbicidal effect rating is on file for COCCOC(=O)CN1C(=O)CSC1=Nc1cc(-n2c(=O)cc(C(F)(F)F)n(C)c2=O)c(F)cc1Cl [Compound 107] ?
## Result 4.0

## Task So what's the measured ECHORC herbicidal effect rating for this one? CCOC(=O)CN1C(=O)C(CC(=O)OC(C)C)SC1=Nc1cc(-n2c(=O)cc(C(F)(F)F)n(C)c2=O)c(F)cc1Cl (stereo not shown) [Compound 60]
## Result 9.0

---

Test system: ECHORC (Watergrass (Calif.))
Assay: Preemergence weed control under flooded paddy conditions
Assay type: in vivo, Echinochloa oryzoides
Settings: 0.0625 kg/ha, rated 3-4 weeks after treatment
measurement label: Herbicidal rating ECHORC
Provide a numeric answer; units are not to be included.

Solved cases below.
CC1SC(=Nc2cc(-n3c(=O)cc(C(F)(F)F)n(C)c3=O)c(F)cc2Cl)N(C)C1=O (stereo not drawn)	2.0
C=CCN1C(=O)CSC1=Nc1cc(-n2c(=O)cc(C(F)(F)F)n(C)c2=O)c(F)cc1Cl	7.0
Cn1c(C(F)(F)F)cc(=O)n(-c2cc(N=C3SCC(=O)N3CCC(=O)O)c(Cl)cc2F)c1=O	1.0
CCOC(=O)CN1C(=O)CSC1=Nc1cc(N2C(=O)C3=C(CCCC3)C2=O)c(F)cc1Cl	2.0
CN1C(=O)CSC1=Nc1cc(N2C(=O)C3=C(CCCC3)C2=O)c(F)cc1Cl	4.0

Alright, here's another compound for you.
## Task May I ask what Herbicidal rating ECHORC has been recorded for CCOC(=O)CN1C(=O)C[S+]([O-])/C1=N/c1cc(-n2c(=O)cc(C(F)(F)F)n(C)c2=O)c(F)cc1Cl (stereo not drawn) ?
## Result 4.0
